- Assay text: Dissolution in Fasted State Simulated Gastric Fluid (FaSSGF), manual experiment, 37 °C
- Format: physicochemical
- Protocol conditions: 37 °C, second experiment, 60 min
Measure name: Solubility (mg/mL)

| Molecule | U | Readout value |
| --- | --- | --- |
| COc1cc(-c2ccc(F)cn2)cc2c(N[C@H](C)c3noc(C)n3)ncnc12 [camphorsulfonate] | mg/mL | 13.45 |
| COc1cc(-c2ccc(F)cn2)cc2c(N[C@H](C)c3noc(C)n3)ncnc12 [besylate] | mg/mL | 21.84 |
| COc1cc(-c2ccc(F)cn2)cc2c(N[C@H](C)c3noc(C)n3)ncnc12 [phosphate] | mg/mL | 14.32 |
| COc1cc(-c2ccc(F)cn2)cc2c(N[C@H](C)c3noc(C)n3)ncnc12 [mandelate] | mg/mL | 10.99 |
| COc1cc(-c2ccc(F)cn2)cc2c(N[C@H](C)c3noc(C)n3)ncnc12 [bromide] | mg/mL | 2.88 |
| COc1cc(-c2ccc(F)cn2)cc2c(N[C@H](C)c3noc(C)n3)ncnc12 [chloride] | mg/mL | 10.87 |
| COc1cc(-c2ccc(F)cn2)cc2c(N[C@H](C)c3noc(C)n3)ncnc12 [oxalate] | mg/mL | 13.87 |
| COc1cc(-c2ccc(F)cn2)cc2c(N[C@H](C)c3noc(C)n3)ncnc12 [fumarate] | mg/mL | 5.89 |
| COc1cc(-c2ccc(F)cn2)cc2c(N[C@H](C)c3noc(C)n3)ncnc12 [tosylate] | mg/mL | 4.97 |
| COc1cc(-c2ccc(F)cn2)cc2c(N[C@H](C)c3noc(C)n3)ncnc12 [free base Form A] | mg/mL | 13.47 |
| COc1cc(-c2ccc(F)cn2)cc2c(N[C@H](C)c3noc(C)n3)ncnc12 [saccharinate] | mg/mL | 0.83 |
| COc1cc(-c2ccc(F)cn2)cc2c(N[C@H](C)c3noc(C)n3)ncnc12 [ethanedisulfonate] | mg/mL | 1.06 |
| COc1cc(-c2ccc(F)cn2)cc2c(N[C@H](C)c3noc(C)n3)ncnc12 [pamoate] | mg/mL | 6.52 |
